test system: Escherichia coli TOP10; assay: shrunken log2 fold change of peptide-encoding DNA abundance (4.5 h post-induction vs induction); higher = less antimicrobial activity (less host growth inhibition); settings: time post-induction: 4.5 h; library: site-saturation at positions 5, 18, 19, 20;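 note: peptides expressed intracellularly from a pBAD plasmid library in pooled LB shake-flask culture, induced with 0.3% L-arabinose, DNA abundance read by NGS, three biological replicates, DESeq2 with apeglm shrinkage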
Recorded shrunken log2 fold change split into classes low (below -0.1), moderate (-0.1 to below 0.03), high (0.03 or more)

Sequence Content | Classification
RRIRRRPPRLPRPRPRPPVFPRP | high
RRIRIRPPRLPRPRPRPYAYPRP | moderate
RRIRKRPPRLPRPRPRPYTYPRP | low
RRIRQRPPRLPRPRPRPEKMPRP | low
RRIRRRPPRLPRPRPRPTLCPRP | high
RRIRKRPPRLPRPRPRPFTQPRP | low
RRIRIRPPRLPRPRPRPTESPRP | low
RRIRYRPPRLPRPRPRPKELPRP | moderate
RRIRLRPPRLPRPRPRPAEIPRP | low
RRIRNRPPRLPRPRPRPGFEPRP | high
RRIRNRPPRLPRPRPRPVRQPRP | high
RRIRMRPPRLPRPRPRPMFNPRP | low
RRIRQRPPRLPRPRPRPCLSPRP | low
RRIRPRPPRLPRPRPRPRQWPRP | high
RRIRERPPRLPRPRPRPFHSPRP | low
RRIRNRPPRLPRPRPRPFWPPRP | high
RRIRVRPPRLPRPRPRPWGYPRP | moderate
RRIRIRPPRLPRPRPRPHTDPRP | low
RRIRTRPPRLPRPRPRPDILPRP | high
RRIRLRPPRLPRPRPRPNAKPRP | moderate
RRIRFRPPRLPRPRPRPQTEPRP | moderate
RRIRMRPPRLPRPRPRPKEYPRP | high
RRIRKRPPRLPRPRPRPGQRPRP | high
RRIRYRPPRLPRPRPRPQWNPRP | low
RRIRVRPPRLPRPRPRPARDPRP | high
RRIRSRPPRLPRPRPRPNKKPRP | low
RRIRLRPPRLPRPRPRPNPQPRP | low
RRIRQRPPRLPRPRPRPDGEPRP | high
RRIRIRPPRLPRPRPRPWYWPRP | low
RRIRDRPPRLPRPRPRPNGNPRP | low
RRIRGRPPRLPRPRPRPNNEPRP | high
RRIRTRPPRLPRPRPRPDRNPRP | moderate
RRIRPRPPRLPRPRPRPWVAPRP | moderate
RRIRYRPPRLPRPRPRPGGGPRP | high
RRIRGRPPRLPRPRPRPERIPRP | moderate
RRIRMRPPRLPRPRPRPFTCPRP | low
RRIRWRPPRLPRPRPRPGYGPRP | moderate
RRIRERPPRLPRPRPRPVTAPRP | moderate
RRIRRRPPRLPRPRPRPSRCPRP | moderate
RRIRYRPPRLPRPRPRPASVPRP | low
RRIRNRPPRLPRPRPRPELQPRP | moderate
RRIRFRPPRLPRPRPRPITCPRP | low
RRIRWRPPRLPRPRPRPWMFPRP | moderate
RRIRKRPPRLPRPRPRPRSWPRP | high
RRIRRRPPRLPRPRPRPYKGPRP | moderate
RRIRARPPRLPRPRPRPFRMPRP | low
RRIRERPPRLPRPRPRPEPMPRP | moderate
RRIRERPPRLPRPRPRPDADPRP | moderate
RRIRYRPPRLPRPRPRPVMGPRP | moderate
RRIRRRPPRLPRPRPRPQWAPRP | moderate
RRIRDRPPRLPRPRPRPCFAPRP | high
RRIRVRPPRLPRPRPRPRPAPRP | high
RRIRSRPPRLPRPRPRPEDSPRP | moderate
RRIRRRPPRLPRPRPRPSSGPRP | moderate
RRIRWRPPRLPRPRPRPCTYPRP | low
RRIRWRPPRLPRPRPRPIYHPRP | low
RRIRWRPPRLPRPRPRPFCGPRP | high
RRIRQRPPRLPRPRPRPWFQPRP | moderate
RRIRWRPPRLPRPRPRPFTNPRP | high
RRIRQRPPRLPRPRPRPNCFPRP | high
RRIRARPPRLPRPRPRPLPIPRP | high
RRIRVRPPRLPRPRPRPVIDPRP | moderate
RRIRTRPPRLPRPRPRPHCSPRP | moderate

Where these numbers come from: the supplement of paper PMC9112550
